Reference source: patent US8410107B2

# TARGET_OR_TEST_SYSTEM: human CB2 receptor (Homo sapiens, UniProt P34972)
# Construct: expressed in transfected cells; host or cells: human embryonic kidney (HEK) cells, Semliki Forest Virus system, membrane preparations
# Sequence (P34972 whole entry): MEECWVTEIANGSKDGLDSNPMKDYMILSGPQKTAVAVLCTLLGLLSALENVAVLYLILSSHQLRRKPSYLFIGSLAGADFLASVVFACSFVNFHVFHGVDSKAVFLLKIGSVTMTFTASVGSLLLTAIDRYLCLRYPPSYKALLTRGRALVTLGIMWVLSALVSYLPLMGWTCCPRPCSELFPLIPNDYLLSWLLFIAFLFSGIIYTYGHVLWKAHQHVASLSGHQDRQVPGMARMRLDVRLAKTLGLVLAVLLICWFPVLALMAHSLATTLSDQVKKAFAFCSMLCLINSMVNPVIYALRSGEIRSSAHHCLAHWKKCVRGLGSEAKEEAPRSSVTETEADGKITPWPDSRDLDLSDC
# ASSAY_NAME: CB2 receptor affinity ([3H]-CP-55,940 displacement, HEK cell membranes)
# Type: binding
# CONDITION_DETAILS: displacement of radioligand [3H]-CP-55,940
MEASURED_PARAMETER: inhibition at 10 µM (%)

O=C(Nc1cnc(OCC(F)(F)F)c(-c2ccc(Cl)cc2)c1)c1cccnn1 [Example 17] ... -3
CCCCC(=O)Nc1cnc(OCC(F)(F)F)c(-c2ccc(Cl)cc2)c1 [Example 1] ... 9.2
O=C(Nc1cnc(OCC(F)(F)F)c(-c2ccc(Cl)cc2)c1)c1ccns1 [Example 22] ... 8

1 = O=C(Nc1cnc(OCC2CC2)c(-c2ccc(Cl)cc2)c1)c1ccncc1 [Example 11]
2 = Cc1nnsc1C(=O)Nc1cnc(OCC(F)(F)F)c(-c2ccc(Cl)cc2)c1 [Example 27]
3 = CCc1ccc(-c2cc(NC(=O)c3cccnn3)cnc2OCC(F)(F)F)cc1 [Example 65]
4 = Cc1cc(-c2cc(NC(=O)c3c(F)ccnc3F)cnc2OCC(F)(F)F)ccc1Cl [Example 59]
5 = Cc1nn(C)cc1C(=O)Nc1cnc(OCC(F)(F)F)c(-c2ccc(Cl)cc2)c1 [Example 33]
Problem: Order the records, beginning with the lowest inhibition at 10 µM and ending with the highest. # respond with the labels, arranged in the requested order
Result: 5, 1, 3, 2, 4
(5: -2%, 1: -1.2%, 3: 5%, 2: 10%, 4: 18%)
